# Tested on: HCV subgenomic replication
# assay.remarks: Cell based HCV replication assay (subgenomic replicon in Huh-7 cells, NS3 Cell-ELISA)
# measurement.conditions: Table A; activity ranges; Huh-7 replicon cells, 96 hours; read-out: IC50 (nM), Inhibition of HCV subgenomic replication
readout.label: IC50

Examples with answers:
| compound | measured.target | IC50 |
| --- | --- | --- |
| CN1CCN(C)CC2Cn3c(c(C4CCCCC4)c4ccc(cc43)C(=O)NS(=O)(=O)N(C)CC1)-c1ccccc1N2C (stereo not drawn) [Compound A9] | HCV subgenomic replication | 25 to 150 nM |
| COc1ccc2c(c1)OCC1CCN(C)CCCN(C)S(=O)(=O)NC(=O)c3ccc4c(C5CCCCC5)c-2n(c4c3)C1 (single isomer, unassigned; (-)) [Compound A35] | HCV subgenomic replication | < 25 nM |

Next:
input: Look up IC50: CCN1CCN(C)C2COc3ccccc3-c3c(C4CCCCC4)c4ccc(cc4n3C2)C(=O)NS(=O)(=O)N(C)CC1 (stereo not drawn) [Compound A3]
output: < 25 nM
